Form field: logP (pH 2)/ m.p. [° C.] (logP part) (one value per entry).
endpoint-name: logP (pH 2)/ m.p. [° C.] (logP part)

O=C(Nc1ccc(Cl)cc1)N1CCC(n2cc(Cl)cn2)C(c2cccc(F)c2)=N1 (stereo not shown); 4.18/213
O=C(Nc1ccc(Cl)cc1)N1CCC(n2cc(Cl)cn2)C(c2cccc(OC(F)(F)F)c2)=N1 (stereo not shown); 4.73/158
O=C(Nc1ccc(C(F)(F)F)cc1)N1CCC(n2cc(Cl)cn2)C(c2cccc(C(F)(F)F)c2)=N1 (stereo not shown); 4.79/176
O=C(Nc1ccc(C(F)(F)F)cc1)N1CCC(n2cc(Cl)cn2)C(c2cccc(Cl)c2)=N1 (stereo not shown); 4.69/199
N#Cc1ccc(NC(=O)N2CCC(n3cc(Cl)cn3)C(c3cccc(Cl)c3)=N2)cc1 (stereo not shown); 3.77
O=C(Nc1ccc(OC(F)(F)F)cc1)N1CCC(n2cc(Cl)cn2)C(c2cccc(Br)c2)=N1 (stereo not shown); 4.82/197
N#Cc1cnn(C2CCN(C(=O)Nc3ccc(OC(F)(F)F)cc3)N=C2c2cccc(Cl)c2)c1 (stereo not shown); 4.15/186
N#Cc1cnn(C2CCN(C(=O)Nc3ccc(C(F)(F)F)cc3)N=C2c2cccc(Br)c2)c1 (stereo not shown); 4.18/244
O=C(Nc1ccc(Cl)cc1)N1CCC(n2cc(Cl)cn2)C(c2cccc(C(F)(F)F)c2)=N1 (stereo not shown); 4.60/199
O=C(Nc1ccc(Cl)cc1)N1CCC(n2cc(Cl)cn2)C(c2cccc(Br)c2)=N1 (stereo not shown); 4.58/198
O=C(Nc1ccc(OC(F)(F)F)cc1)N1CCC(n2cc(Cl)cn2)C(c2cccc(F)c2)=N1 (stereo not shown); 4.43/148
N#Cc1cccc(C2=NN(C(=O)Nc3ccc(C(F)(F)F)cc3)CCC2n2cc(Cl)cn2)c1 (stereo not shown); 4.03/229
O=C(Nc1ccc(SC(F)(F)F)cc1)N1CCC(n2cc(Cl)cn2)C(c2cccc(F)c2)=N1 (stereo not shown); 4.81/166
N#Cc1cccc(C2=NN(C(=O)Nc3ccc(SC(F)(F)F)cc3)CCC2n2cc(Cl)cn2)c1 (stereo not shown); 4.44/182
O=C(Nc1ccc(SC(F)(F)F)cc1)N1CCC(n2cc(Cl)cn2)C(c2cccc(C(F)(F)F)c2)=N1 (stereo not shown); 5.21/188
N#Cc1cccc(C2=NN(C(=O)Nc3ccc(OC(F)(F)F)cc3)CCC2n2cc(C#N)cn2)c1 (stereo not shown); 3.62/239
